Reference for the values: ChEMBL document CHEMBL4014345

Experiment: Cytotoxicity against HEK293 cells assessed as growth inhibition
Type: cell-based
Settings: human
Please respond with reported GI50 for every item in the list.

{"TEST_SMILES": "COc1ccc2sc(C(=O)N(C)Cc3cccc(F)c3)cc2c1", "GI50": "> 30 µM"}

For the next question, use this compound.
Note down GI50 recorded for `COc1ccc2sc(C(=O)N(C)Cc3ccccc3)cc2c1` > 30 µM

====

Target: UniProt O35491
Sequence (O35491 whole entry): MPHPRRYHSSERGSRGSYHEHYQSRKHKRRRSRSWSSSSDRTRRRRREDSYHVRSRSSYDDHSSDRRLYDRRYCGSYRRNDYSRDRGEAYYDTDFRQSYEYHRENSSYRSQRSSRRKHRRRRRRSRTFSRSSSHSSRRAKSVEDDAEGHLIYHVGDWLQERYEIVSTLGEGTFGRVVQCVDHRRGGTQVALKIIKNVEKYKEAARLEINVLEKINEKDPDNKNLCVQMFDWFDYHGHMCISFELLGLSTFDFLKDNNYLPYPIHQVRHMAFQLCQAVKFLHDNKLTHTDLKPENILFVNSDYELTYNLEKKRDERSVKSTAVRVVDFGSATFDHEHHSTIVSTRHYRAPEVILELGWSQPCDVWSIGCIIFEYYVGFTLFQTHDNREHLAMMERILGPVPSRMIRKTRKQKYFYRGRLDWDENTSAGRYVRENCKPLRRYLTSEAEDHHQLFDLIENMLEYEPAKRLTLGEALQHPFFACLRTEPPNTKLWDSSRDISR
Assay: Inhibition of recombinant GST-tagged mouse CLK2 using GRSRSRSRSRSR as substrate after 30 mins in presence of [gamma-32P]-ATP by scintillation counting method
ENDPOINT: IC50

Provide the reported IC50 (system: UniProt O35491) for `COc1ccc2sc(C(=O)N(C)Cc3cccc(F)c3)cc2c1` 19.1 nM

====

Biological target: Dual specificity protein kinase CLK4 (Mus musculus, UniProt O35493)
Sequence (O35493 whole entry): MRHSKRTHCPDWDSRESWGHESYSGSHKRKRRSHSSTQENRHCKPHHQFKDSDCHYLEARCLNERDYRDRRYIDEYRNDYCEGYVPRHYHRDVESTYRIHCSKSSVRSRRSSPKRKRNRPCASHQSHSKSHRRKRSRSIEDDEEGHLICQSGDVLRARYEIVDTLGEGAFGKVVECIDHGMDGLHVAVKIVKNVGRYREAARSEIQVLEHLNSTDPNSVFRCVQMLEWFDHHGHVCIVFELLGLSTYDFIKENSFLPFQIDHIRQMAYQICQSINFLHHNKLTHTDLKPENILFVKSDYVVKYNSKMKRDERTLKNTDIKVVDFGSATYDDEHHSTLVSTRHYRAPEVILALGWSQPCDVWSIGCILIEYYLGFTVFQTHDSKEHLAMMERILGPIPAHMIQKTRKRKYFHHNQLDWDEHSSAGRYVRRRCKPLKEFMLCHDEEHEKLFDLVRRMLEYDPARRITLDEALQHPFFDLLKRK
Assay: Inhibition of recombinant GST-tagged mouse CLK4 using GRSRSRSRSRSR as substrate after 30 mins in presence of [gamma-32P]-ATP by scintillation counting method
ENDPOINT: IC50
Answer as a quantity: numeral, then unit.

In one line, give reported IC50 of the entry `COc1ccc2sc(C(=O)N(C)Cc3cccc(F)c3)cc2c1` . 2.3 nM

====

Molecular target: Dual specificity protein kinase CLK1 (Homo sapiens)
Assay: Inhibition of recombinant human GST-tagged Clk1 expressed in Escherichia coli using RS repeat substrate peptide after 15 mins in presence of [gamma-32]-ATP
Sequence (P49759 whole entry): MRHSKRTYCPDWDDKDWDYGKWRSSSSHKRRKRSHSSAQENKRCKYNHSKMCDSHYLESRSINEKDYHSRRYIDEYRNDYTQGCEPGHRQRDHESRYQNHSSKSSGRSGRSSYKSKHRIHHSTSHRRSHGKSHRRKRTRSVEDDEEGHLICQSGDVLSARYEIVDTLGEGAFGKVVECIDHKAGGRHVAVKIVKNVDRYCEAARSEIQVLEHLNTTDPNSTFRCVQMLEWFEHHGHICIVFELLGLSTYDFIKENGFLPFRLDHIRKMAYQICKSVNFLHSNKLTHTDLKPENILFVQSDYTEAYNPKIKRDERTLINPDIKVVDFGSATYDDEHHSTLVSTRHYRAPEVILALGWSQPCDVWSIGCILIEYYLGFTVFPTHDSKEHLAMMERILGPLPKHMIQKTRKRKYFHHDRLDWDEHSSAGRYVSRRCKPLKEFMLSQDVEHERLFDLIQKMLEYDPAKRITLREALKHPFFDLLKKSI
Assignment: determine reported IC50 for the given compounds.
Give bare numbers, in nM.

// known answers, use as guide
{"TEST_SMILES": "COc1ccc2sc(C(=O)NCCc3ccccc3)cc2c1", "UNIT_TEXT": "nM", "RESULT_NUMBER": 107}
{"TEST_SMILES": "COc1ccc2sc(C(=O)N(C)Cc3ccccc3)cc2c1", "UNIT_TEXT": "nM", "RESULT_NUMBER": 45}
{"TEST_SMILES": "COc1ccc2sc(C(=O)NCc3ccccc3)cc2c1", "UNIT_TEXT": "nM", "RESULT_NUMBER": 84}

Okay, now this compound:
Please report IC50 for the following compound: `COc1ccc2sc(C(=O)N(C)Cc3cccnc3)cc2c1` 81.6

====

Target: UniProtKB P49759
Experiment: Inhibition of recombinant human GST-tagged Clk1 expressed in Escherichia coli at 100 nM using RS repeat substrate peptide after 15 mins in presence of [gamma-32]-ATP
Sequence (P49759 whole entry, looked up): as the sequence (P49759 whole entry) above
ENDPOINT: inhibition (%)
One number for each entry, in %.

{"TEST_SMILES": "COc1ccc2sc(C(=O)N[C@H](C)C(C)(C)C)cc2c1", "ASSAYED_TARGET": "UniProtKB P49759", "inhibition [%]": 6}
{"TEST_SMILES": "COc1ccc2sc(C(=O)N[C@@H](C)C(=O)O)cc2c1", "ASSAYED_TARGET": "UniProtKB P49759", "inhibition [%]": 0}
{"TEST_SMILES": "COc1ccc2sc(C(=O)NCc3ccccn3)cc2c1", "ASSAYED_TARGET": "UniProtKB P49759", "inhibition [%]": 0}

For each of the molecules below, note its inhibition.
1. COc1ccc2sc(C(=O)NCC(F)(F)F)cc2c1
2. COc1ccc2sc(C(=O)N(C)Cc3cccnc3)cc2c1
3. COc1ccc2sc(C(=O)NCC(=O)O)cc2c1

1. 39.8
2. 51
3. 0.5

// batch mode: one inhibition value per listed entry
1. COc1ccc2sc(C(=O)NCCN)cc2c1
2. COc1cccc(CN(C)C(=O)c2cc3cc(OC)ccc3s2)c1
3. COc1ccc2sc(C(=O)Nc3nccs3)cc2c1
4. COc1ccc2sc(C(=O)NCc3ccccc3F)cc2c1

7.7
31.6
28.2
23.2

Report inhibition for every entry below.
1. COC(=O)CNC(=O)c1cc2cc(OC)ccc2s1
2. COc1ccc2sc(C(=O)N3CCCCC3)cc2c1

1. 0
2. 0

# return recorded inhibition for entry `COc1ccc2sc(C(=O)NCc3ccco3)cc2c1` 33.4

====

Biological target: Dual specificity protein kinase CLK1 (Homo sapiens, UniProt P49759)
Experiment: Inhibition of recombinant human GST-tagged Clk1 expressed in Escherichia coli at 100 nM using RS repeat substrate peptide after 15 mins in presence of [gamma-32]-ATP
ENDPOINT: inhibition (%)
Answers are plain numbers, in %.

{"TEST_SMILES": "COc1ccc2sc(C(=O)NCc3ccc(F)cc3)cc2c1", "inhibition [%]": 23.5}
{"TEST_SMILES": "COc1ccc2sc(C(=O)NCc3ncc[nH]3)cc2c1", "inhibition [%]": 0}
{"TEST_SMILES": "COc1cccc(CNC(=O)c2cc3cc(OC)ccc3s2)c1", "inhibition [%]": 13.4}
{"TEST_SMILES": "COc1ccc2sc(C(=O)N(C)Cc3ccccc3F)cc2c1", "inhibition [%]": 43.2}
{"TEST_SMILES": "COc1ccc2sc(C(=O)NCCO)cc2c1", "inhibition [%]": 0}
{"TEST_SMILES": "COc1ccc2sc(C(=O)N(C)Cc3ccccc3)cc2c1", "inhibition [%]": 70.6}
{"TEST_SMILES": "COc1ccc2sc(C(=O)NC3CC3)cc2c1", "inhibition [%]": 25}
{"TEST_SMILES": "CCOC(=O)[C@H](C)NC(=O)c1cc2cc(OC)ccc2s1", "inhibition [%]": 0}
{"TEST_SMILES": "COc1ccc2sc(C(=O)NCc3cccc(F)c3)cc2c1", "inhibition [%]": 33.9}
{"TEST_SMILES": "C=CCNC(=O)c1cc2cc(OC)ccc2s1", "inhibition [%]": 37}

Give inhibition for each listed item.
1. COc1ccc2sc(C(=O)N(C)Cc3ccc(F)cc3)cc2c1
2. COC(=O)[C@@H](NC(=O)c1cc2cc(OC)ccc2s1)C(C)C
3. COc1ccc2sc(C(=O)N3CCOCC3)cc2c1

1: 28.7; 2: 18.8; 3: 0

====

System: T-24
Experiment: Cytotoxicity against human T24 cells assessed as growth inhibition after 5 days by MTT assay
Format: functional
Conditions: T-24, 120 h
Kindly state GI50 for each of the entries shown.
One number for each entry, in nM.

Check out these entries, answers already filled in.
{"TEST_SMILES": "COc1ccc2sc(C(=O)N(C)Cc3ccccc3)cc2c1", "GI50 (nM)": 2700}
{"TEST_SMILES": "COc1ccc2sc(C(=O)N(C)Cc3cccnc3)cc2c1", "GI50 (nM)": 12500}

Now, please, on to the next compound.
Fill in GI50 for record `COc1ccc2sc(C(=O)N(C)Cc3cccc(F)c3)cc2c1` 600

====

Target: Dual specificity protein kinase CLK1 (Homo sapiens, UniProt P49759)
Assay: Inhibition of recombinant human GST-tagged Clk1 expressed in Escherichia coli at 100 nM using RS repeat substrate peptide after 15 mins in presence of [gamma-32]-ATP
ENDPOINT: inhibition (%)
Answers are plain numbers, in %.

Worked examples, 5 compounds total:
{"TEST_SMILES": "COc1ccc2sc(C(=O)N(C)Cc3cccc(F)c3)cc2c1", "ENDPOINT": "inhibition", "RESULT_NUMBER": 80}
{"TEST_SMILES": "COc1ccc2sc(C(=O)N3CCN(C)CC3)cc2c1", "ENDPOINT": "inhibition", "RESULT_NUMBER": 0}
{"TEST_SMILES": "COc1ccc2sc(C(=O)NCCc3ccccc3)cc2c1", "ENDPOINT": "inhibition", "RESULT_NUMBER": 50.7}
{"TEST_SMILES": "COc1ccc2sc(C(=O)N(C)Cc3cccc(C)c3)cc2c1", "ENDPOINT": "inhibition", "RESULT_NUMBER": 25.9}
{"TEST_SMILES": "COc1ccc2sc(C(=O)N(C)CCn3ccnc3)cc2c1", "ENDPOINT": "inhibition", "RESULT_NUMBER": 9.4}

Send back Dual specificity protein kinase CLK1 (Homo sapiens, UniProt P49759) inhibition of `COc1ccc2sc(C(=O)NCc3cccnc3)cc2c1` only. 28.9

====

Target: Dual specificity protein kinase CLK1 (Homo sapiens)
Test: Inhibition of recombinant human GST-tagged Clk1 expressed in Escherichia coli at 100 nM using RS repeat substrate peptide after 15 mins in presence of [gamma-32]-ATP
Values of inhibition greater than or equal to 0.5% map to criterion met; values below map to criterion not met.

{"TEST_SMILES": "COc1ccc2sc(C(=O)N(C)CCc3ccccc3)cc2c1", "ASSIGNED_CATEGORY": "criterion met"}
{"TEST_SMILES": "COc1ccc2sc(C(=O)N[C@H](C(=O)O)C(C)C)cc2c1", "ASSIGNED_CATEGORY": "criterion not met"}
{"TEST_SMILES": "COc1ccc2sc(C(=O)NCCn3ccnc3)cc2c1", "ASSIGNED_CATEGORY": "criterion not met"}
{"TEST_SMILES": "COc1ccc2sc(C(=O)N(C)Cc3ccccn3)cc2c1", "ASSIGNED_CATEGORY": "criterion met"}
{"TEST_SMILES": "COc1ccc2sc(C(=O)Nc3ccccc3)cc2c1", "ASSIGNED_CATEGORY": "criterion met"}

# ---- query compound ----
Evaluate `COc1ccc2sc(C(=O)NCc3ccccc3)cc2c1` : inhibition at minimum 0.5%? criterion met
